test.target: T1, human SIRPα v1 ECD recombinant protein (human, UniProt P78324 31-373)
T1 construct: extracellular domain; Coated on the ELISA plate
T1 sequence (P78324 31-373): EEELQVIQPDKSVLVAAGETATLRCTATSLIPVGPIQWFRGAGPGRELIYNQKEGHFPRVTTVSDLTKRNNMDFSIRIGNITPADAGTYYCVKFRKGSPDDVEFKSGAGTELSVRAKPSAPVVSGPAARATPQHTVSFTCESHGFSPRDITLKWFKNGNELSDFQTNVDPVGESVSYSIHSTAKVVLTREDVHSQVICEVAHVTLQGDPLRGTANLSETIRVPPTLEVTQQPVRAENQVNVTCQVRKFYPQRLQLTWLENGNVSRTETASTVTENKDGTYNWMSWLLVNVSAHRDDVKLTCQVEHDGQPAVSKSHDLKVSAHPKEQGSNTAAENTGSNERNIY
run.description: competitive ELISA, plate-coated human SIRPα v1 ECD; blocked ligand: mFc tagged human CD47 ECD

>  <binder>
Anti-SIRPα antibody C25 (antibody, V domains shown, Mouse variable regions; also called 025c; 025) VH: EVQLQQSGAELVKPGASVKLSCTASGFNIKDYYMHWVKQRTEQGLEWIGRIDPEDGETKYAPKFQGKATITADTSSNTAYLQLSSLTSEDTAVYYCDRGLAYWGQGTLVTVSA VL: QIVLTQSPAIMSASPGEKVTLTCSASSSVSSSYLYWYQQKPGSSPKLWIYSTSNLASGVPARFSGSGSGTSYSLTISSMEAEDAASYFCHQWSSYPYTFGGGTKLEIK

>  <TOP blocking [%]>
96.5

$$$$
